Test system: A549
Test: Euclidean distance of Cell Painting phenotypic profile (signed KS, 77 features) to DMSO centroid (dimensionless distance); 5 or 10 uM (library dependent); higher = stronger phenotypic change vs DMSO (phenoactivity)
Conditions: 48 h
Counter-ions that a name gives are not always drawn.
TEST READOUT: Euclidean distance
Answers are plain numbers.

Some solved cases for reference:
INSERT INTO assay_data (compound, measured_on, result_number) VALUES
  ('C[C@@H]1C[C@H]2[C@@H]3CCC4=CC(=O)C=C[C@]4(C)[C@@]3(Cl)[C@@H](O)C[C@]2(C)[C@@]1(OC(=O)c1ccco1)C(=O)CCl [Mometasone furoate]', 'A549', 1.97),
  ('Nc1nc(NC2CC2)c2ncn([C@H]3C=C[C@@H](CO)C3)c2n1 [Abacavir]', 'A549', 0.752),
  ('O=C(O)c1ccc(C=C2SC(=S)N(c3cccc(C(F)(F)F)c3)C2=O)cc1', 'A549', 0.983),
  ('CC[C@H]1OC(=O)C[C@@H](O)[C@H](C)[C@@H](O[C@@H]2O[C@H](C)[C@@H](O[C@H]3C[C@@](C)(O)[C@@H](O)[C@H](C)O3)[C@H](N(C)C)[C@H]2O)[C@@H](CC=O)C[C@@H](C)C(=O)/C=C/C(C)=C/[C@@H]1CO[C@@H]1O[C@H](C)[C@@H](O)[C@@H](OC)[C@H]1OC', 'A549', 1.08),
  ('CCOc1ccc(NC(C)=O)cc1', 'A549', 0.916),
  ('Cc1ncc([N+](=O)[O-])n1CC(O)CCl (centres undefined)', 'A549', 0.686),
  ('O=C1c2c(O)ccc(O)c2C(=O)c2c(NCCNCCO)ccc(NCCNCCO)c21 [Mitoxantrone 2HCl]', 'A549', 5.26),
  ('COc1cccc(-c2cc(=O)c3ccccc3o2)c1N', 'A549', 1.4),
  ('O=C(NCc1cccc(O)c1)Nc1nc(-c2ccncc2)cs1', 'A549', 1.54),
  ('CC(C)c1nc(N(C)S(C)(=O)=O)nc(-c2ccc(F)cc2)c1/C=C/[C@@H](O)C[C@@H](O)CC(=O)O', 'A549', 0.682);

Each compound below has a recorded value; state its Euclidean distance.
1. NC(=O)N/N=C/c1ccc([N+](=O)[O-])o1
2. CCN(CCCCOC(=O)c1ccc(OC)c(OC)c1)C(C)Cc1ccc(OC)cc1 (centres undefined) [Mebeverine Hydrochloride]
3. CCCCNc1ccc(C(=O)OCCN(C)C)cc1 [Tetracaine HCl]

Result:
1. 0.907
2. 1.21
3. 0.918

The recorded Euclidean distance for COc1cc2/c(=N/c3ccc(Br)cc3F)nc[nH]c2cc1OCC1CCN(C)CC1 [Vandetanib (ZD6474)] is 2.59
